Reference source for all entries: ChEMBL document CHEMBL2440082

- Tested on: HepG2
- testName: Antiproliferative activity against human HepG2 cells at 1 uM after 24 hrs by crystal violet-staining assay
- Type: functional
Active and inactive are the calls of the source. No cut-off for these calls is given here.
readout: Activity

smilesText	endpointValue
CN(C)c1cc[n+](Cc2ccc(CCc3ccc(CNc4cccc(O)c4)cc3)cc2)cc1.[Br-]	5.56%
Nc1cccc(OCc2ccc(-c3ccc(C[n+]4ccc(N5CCCC5)cc4)cc3)cc2)c1.[Br-]	40.52%
Oc1cccc(NCc2ccc(CCc3ccc(C[n+]4ccc(N5CCCC5)cc4)cc3)cc2)c1.[Br-]	11.19%
Oc1cccc(NCc2ccc(CCCCc3ccc(C[n+]4ccc(N5CCCC5)cc4)cc3)cc2)c1.[Br-]	inactive
CN(C)c1cc[n+](Cc2ccc(CCCCc3ccc(CNc4cccc(O)c4)cc3)cc2)cc1.[Br-]	4.58%
Nc1cccc(OCc2ccc(CCc3ccc(C[n+]4ccc(N5CCCC5)cc4)cc3)cc2)c1.[Br-]	55.37%
Nc1cccc(OCc2ccc(C[n+]3ccc(N4CCCC4)cc3)cc2)c1	inactive
Oc1cccc(NCc2ccc(-c3ccc(C[n+]4ccc(N5CCCC5)cc4)cc3)cc2)c1.[Br-]	48.52%
CN(C)c1cc[n+](Cc2ccc(CCc3ccc(COc4cccc(N)c4)cc3)cc2)cc1.[Br-]	7.42%

* * *

// Activity lookup, one value per entry
- System: HepG2
- testName: Antiproliferative activity against human HepG2 cells at 50 uM after 24 hrs by crystal violet-staining assay
- Format: functional

smilesText	targetDesc	Activity
CN(C)c1cc[n+](Cc2ccc(-c3ccc(Cn4cnc(N)c5ncnc4-5)cc3)cc2)cc1.[Br-]	HepG2	7%
CN(C)c1cc[n+](Cc2ccc(CCCCc3ccc(COc4cccc(N)c4)cc3)cc2)cc1.[Br-]	HepG2	46.67%
CN(C)c1cc[n+](Cc2ccc(CCc3ccc(CNc4cccc(O)c4)cc3)cc2)cc1.[Br-]	HepG2	73.4%
CN(C)c1cc[n+](Cc2ccc(CNc3cccc(O)c3)cc2)cc1.[Br-]	HepG2	54.51%
CN(C)c1cc[n+](Cc2ccc(COc3cccc(N)c3)cc2)cc1.[Br-]	HepG2	22.48%
CN(C)c1cc[n+](Cc2ccc(-c3ccc(CNc4cccc(O)c4)cc3)cc2)cc1.[Br-]	HepG2	24.4%
Oc1cccc(NCc2ccc(C[n+]3ccc(N4CCCC4)cc3)cc2)c1.[Br-]	HepG2	8.53%
CN(C)c1cc[n+](Cc2ccc(CCc3ccc(COc4cccc(N)c4)cc3)cc2)cc1.[Br-]	HepG2	59.54%
CN(C)c1cc[n+](Cc2ccc(CCCCc3ccc(CNc4cccc(O)c4)cc3)cc2)cc1.[Br-]	HepG2	71.1%
CN(C)c1cc[n+](Cc2ccc(CCCCc3ccc(Cn4cnc5c(N)ncnc54)cc3)cc2)cc1.[Br-]	HepG2	45.5%

* * *

- System: HepG2
- testName: Antiproliferative activity against human HepG2 cells at 1 uM after 24 hrs by crystal violet-staining assay
- Format: functional
Active and inactive are the calls of the source. The calls are words filed in the database; no cut-off is given here.
readout: Activity

smilesText	targetDesc	readout	endpointValue
Oc1cccc(NCc2ccc(C[n+]3ccc(N4CCCC4)cc3)cc2)c1.[Br-]	HepG2	Activity	2.91%
CN(C)c1cc[n+](Cc2ccc(-c3ccc(COc4cccc(N)c4)cc3)cc2)cc1.[Br-]	HepG2	Activity	8.5%
CN(C)c1cc[n+](Cc2ccc(CNc3cccc(O)c3)cc2)cc1.[Br-]	HepG2	Activity	7.74%
Nc1cccc(OCc2ccc(CCCCc3ccc(C[n+]4ccc(N5CCCC5)cc4)cc3)cc2)c1.[Br-]	HepG2	Activity	57.69%
CN(C)c1cc[n+](Cc2ccc(CCCCc3ccc(COc4cccc(N)c4)cc3)cc2)cc1.[Br-]	HepG2	Activity	10.14%
CN(C)c1cc[n+](Cc2ccc(-c3ccc(CNc4cccc(O)c4)cc3)cc2)cc1.[Br-]	HepG2	Activity	inactive
CN(C)c1cc[n+](Cc2ccc(COc3cccc(N)c3)cc2)cc1.[Br-]	HepG2	Activity	inactive

* * *

- Species: Homo sapiens
- testName: Inhibition of human ChoK activity assessed as inhibition of incorporation of [14C] from methyl[14C]choline into phosphocholine at 50 uM after 20 mins by scintillation counting
Active and inactive are the calls of the source. The rule behind the calls is not given here.
readout: inhibition

smilesText	readout	endpointValue
Oc1cccc(NCc2ccc(CCc3ccc(C[n+]4ccc(N5CCCC5)cc4)cc3)cc2)c1.[Br-]	inhibition	13.6%
Nc1cccc(OCc2ccc(C[n+]3ccc(N4CCCC4)cc3)cc2)c1	inhibition	12.9%
CN(C)c1cc[n+](Cc2ccc(CCc3ccc(CNc4cccc(O)c4)cc3)cc2)cc1.[Br-]	inhibition	39.5%
Oc1cccc(NCc2ccc(C[n+]3ccc(N4CCCC4)cc3)cc2)c1.[Br-]	inhibition	41.3%
CN(C)c1cc[n+](Cc2ccc(-c3ccc(COc4cccc(N)c4)cc3)cc2)cc1.[Br-]	inhibition	79.8%
CN(C)c1cc[n+](Cc2ccc(CCc3ccc(COc4cccc(N)c4)cc3)cc2)cc1.[Br-]	inhibition	21.9%
CN(C)c1cc[n+](Cc2ccc(CNc3cccc(O)c3)cc2)cc1.[Br-]	inhibition	52.4%
CN(C)c1cc[n+](Cc2ccc(-c3ccc(CNc4cccc(O)c4)cc3)cc2)cc1.[Br-]	inhibition	66.2%
CN(C)c1cc[n+](Cc2ccc(-c3ccc(Cn4cnc(N)c5ncnc4-5)cc3)cc2)cc1.[Br-]	inhibition	71.4%
CN(C)c1cc[n+](Cc2ccc(COc3cccc(N)c3)cc2)cc1.[Br-]	inhibition	37.7%
CN(C)c1cc[n+](Cc2ccc(CCCCc3ccc(COc4cccc(N)c4)cc3)cc2)cc1.[Br-]	inhibition	inactive
Nc1cccc(OCc2ccc(CCCCc3ccc(C[n+]4ccc(N5CCCC5)cc4)cc3)cc2)c1.[Br-]	inhibition	21.6%
Nc1cccc(OCc2ccc(-c3ccc(C[n+]4ccc(N5CCCC5)cc4)cc3)cc2)c1.[Br-]	inhibition	20.8%
CN(C)c1cc[n+](Cc2ccc(CCCCc3ccc(Cn4cnc5c(N)ncnc54)cc3)cc2)cc1.[Br-]	inhibition	89.7%
Nc1cccc(OCc2ccc(CCc3ccc(C[n+]4ccc(N5CCCC5)cc4)cc3)cc2)c1.[Br-]	inhibition	inactive
Oc1cccc(NCc2ccc(CCCCc3ccc(C[n+]4ccc(N5CCCC5)cc4)cc3)cc2)c1.[Br-]	inhibition	18%
Oc1cccc(NCc2ccc(-c3ccc(C[n+]4ccc(N5CCCC5)cc4)cc3)cc2)c1.[Br-]	inhibition	28.2%
CN(C)c1cc[n+](Cc2ccc(CCCCc3ccc(CNc4cccc(O)c4)cc3)cc2)cc1.[Br-]	inhibition	12.9%

* * *

// IC50 lookup, one value per entry
- testName: Inhibition of human ChoK activity assessed as inhibition of incorporation of [14C] from methyl[14C]choline into phosphocholine after 20 mins by scintillation counting

smilesText	IC50 (µM)
CN(C)c1cc[n+](Cc2ccc(-c3ccc(COc4cccc(N)c4)cc3)cc2)cc1.[Br-]	6.37
CN(C)c1cc[n+](Cc2ccc(-c3ccc(CNc4cccc(O)c4)cc3)cc2)cc1.[Br-]	7.89
